targetOrSystem: T1, biotinylated native human ApoC3 (human, UniProt P02656 21-99, biotinylated (site not stated))
T1 construct: also called biotinylated human ApoC3
T1 sequence (P02656 21-99): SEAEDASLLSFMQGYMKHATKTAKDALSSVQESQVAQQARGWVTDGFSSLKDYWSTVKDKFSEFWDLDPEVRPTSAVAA
experimentSummary: SPR, IgG1 over biotinylated ApoC3 on SA chip, pH 7.4
metricName: kon (M⁻¹ s⁻¹)
Answer with a number only, understood to be in M⁻¹ s⁻¹.

Please give the measured kon for this binder: 5E5VH5_VL8 human IgG1 (antibody, V domains shown, Tested as human IgG1; the tested lot is not tied to them in words) VH: QLQLVESGGGLVQPGGSLRLSCAASGFTFGTYSMRWVRQVPRKALEWVSSIHTDGGGTAYRDSVKGRFTISRDNAKNTLYLQMNNLKPEDTAIYYCVIAGYSDWGQGTQVTVSS VL: ATMLTQSPGSLSVVPGESASISCKTSQGLVHSDGKTYFYWFLQKPGQSPQQLIYQVSNRASGVPDRFTGSGSGTDFTLKISGVKAEDAGVYYCAHGTYYPHTFGSGTRLEIK
177000

Requested field: kon. Item: mAb19 (antibody, IgG1, V domains shown, Produced as full length IgG1 (kappa) in ExpiCHO-S cells; also called humanized anti-ApoC3 antibody mAb19) VH: QLVESGGGLVQPGGSLRLSCAASGFTFSTYSMRWVRQAPGKGLEWVSSIHTDAGGTAYRDSVKGRFTISRDNAKNTLYLQMNNLRPEDTAVYYCVIAGYSDWGQGTLVTVSS VL: DIVMTQSPGSLSVTPGEPASISCKTSQGLVHSGGKTYFYWFLQKPGQSPQQLIYQVSNRASGVPDRFTGSGSGTDFTLKISGVEAEDAGVYYCAQGTYYPHTFGQGTRLEIK
640000

For the binder shown here, mAb2 (antibody, IgG1, V domains shown, Produced as full length IgG1 (kappa) in ExpiCHO-S cells; also called humanized anti-ApoC3 antibody mAb2) VH: QLVESGGGLVQPGGSLRLSCAASGFTFGTYSMRWVRQVPGKGLEWVSSIHTEGGGTAYRDSVKGRFTISRDNAKNTLYLQMNSLRAEDTAIYYCVIAGYSDWGQGTLVTVSS VL: DIVMTQSPLSLPVTPGESASISCKTSQGLVHSDGKTYFYWFLQKPGQSPQQLIYQVSNRASGVPDRFSGSGSGTDFTLKISRVKAEDAGVYYCAHGTYYPHTFGQGTRLEIK , give the reported kon.
245000

May I ask what kon has been recorded for mAb11 (antibody, IgG1, V domains shown, Produced as full length IgG1 (kappa) in ExpiCHO-S cells; also called humanized anti-ApoC3 antibody mAb11) VH: QLVESGGGLVQPGGSLRLSCAASGFTFSTYSMRWVRQVPGKGLEWVSSIHTEGGGTAYRDSVKGRFTISRDNAKNTLYLQMNNLRAEDTAVYYCVIAGYSDWGQGTLVTVSS VL: DIVMTQSPLSLSVTPGEPASISCKTSQGLVHSDGKTYFYWFLQKPGQSPQQLIYQVSNRASGVPDRFSGSGSGTDFTLKISRVEAEDVGVYYCAHGTYYPHTFGQGTRLEIK ?
219000

What value of kon has been recorded for this entry: mAb9 (antibody, IgG1, V domains shown, Produced as full length IgG1 (kappa) in ExpiCHO-S cells; also called humanized anti-ApoC3 antibody mAb9) VH: QLVESGGGLVQPGGSLRLSCAASGFTFSTYSMRWVRQAPGKGLEWVSSIHTDAGGTAYRDSVKGRFTISRDNAKNTLYLQMNNLRAEDTAVYYCVIAGYSDWGQGTLVTVSS VL: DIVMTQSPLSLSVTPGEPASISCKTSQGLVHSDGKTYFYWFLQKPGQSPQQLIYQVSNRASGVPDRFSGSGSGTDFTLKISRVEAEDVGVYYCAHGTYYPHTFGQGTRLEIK
223000
